- MEASURED TARGET: GST-tagged human ROCK2 catalytic domain 1-553 (Homo sapiens (Human))
- Sequence (O75116 1-553): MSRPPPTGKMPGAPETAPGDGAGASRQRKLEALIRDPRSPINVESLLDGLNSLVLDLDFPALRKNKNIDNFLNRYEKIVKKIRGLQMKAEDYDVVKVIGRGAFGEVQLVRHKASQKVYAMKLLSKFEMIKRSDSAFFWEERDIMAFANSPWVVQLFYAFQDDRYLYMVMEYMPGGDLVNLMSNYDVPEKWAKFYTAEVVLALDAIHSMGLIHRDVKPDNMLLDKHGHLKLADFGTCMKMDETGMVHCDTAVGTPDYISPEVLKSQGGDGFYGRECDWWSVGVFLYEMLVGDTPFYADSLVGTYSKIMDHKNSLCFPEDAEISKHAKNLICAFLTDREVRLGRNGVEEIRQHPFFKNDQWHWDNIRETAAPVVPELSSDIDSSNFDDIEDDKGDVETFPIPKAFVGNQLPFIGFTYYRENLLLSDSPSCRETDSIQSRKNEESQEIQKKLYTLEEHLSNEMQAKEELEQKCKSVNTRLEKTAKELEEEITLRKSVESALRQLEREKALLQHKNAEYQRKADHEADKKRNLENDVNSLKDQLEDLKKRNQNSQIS
- TEST NAME: Inhibition of Rho-associated protein kinase isoform 2 (LANCE Ultra ULight-CREBtide FRET kinase assay)
- Format: biochemical
- MEASUREMENT CONDITIONS: 30 μM was the highest concentration analyzed
Answer each item with its documented IC50.

Exercise: Quick one: IC50 for CC(=O)Nc1cc(-c2nnc(Nc3ccc4[nH]ncc4c3Cl)s2)ccc1CN(C)C [Example 48L] ?
Solution: < 1 µM

Exercise: Quick one: IC50 for O=C(Nc1cccc(-c2nnc(Nc3ccc4[nH]ncc4c3Cl)s2)c1)c1cnccn1 [Example 35BR] ?
Solution: < 1 µM

Exercise: Quick one: IC50 for C=Cc1c(Nc2nnc(-c3cccc(NC(C)=O)c3)s2)ccc2[nH]ncc12.O=C(O)C(F)(F)F [Example 35K] ?
Solution: < 1 µM
